Tested on: neutrophil influx (myeloperoxidase, MPO)
assay text: Murine arachidonic acid-induced inflammation model: neutrophil influx (myeloperoxidase activity in ear biopsies)
Format: in vivo, female Balb/c mice
measurement setup: Mus musculus, 30 mg/kg oral gavage 60 min before topical arachidonic acid to ear, ear biopsies after 3 h, vs animals without inhibitor, read-out: % Inh. MPO
endpoint label: inhibition in vivo at 30 mg/kg (%)

| compound | observed measurement |
| --- | --- |
| OCC1CCCCN1CCOc1ccc(Oc2nc3ccccc3s2)cc1 (stereo not drawn) [Example 263] | 19 |
| O=C(O)C1CCCN(CCc2ccc(Oc3nc4ccccc4s3)cc2)C1 (stereo not drawn) [Example 155] | 93 |
| CS(=O)(=O)NC1CCN(Cc2ccc(Oc3nc4ccccc4s3)cc2)CC1 [Example 361] | 90 |
| OCC1CCN(Cc2ccc(Oc3nc4ccccc4s3)cc2)CC1 [Example 360] | 88 |
| O=C(CO)N1CCN(CCc2ccc(Oc3nc4ccccc4s3)cc2)CC1 [Example 325] | 67 |
| CC(=O)N(C)C1CCN(Cc2ccc(Oc3nc4ccccc4s3)cc2)CC1 [Example 471] | 89 |
| O=C1C[C@H](O)CN1C1CCN(Cc2ccc(Oc3nc4ccccc4s3)cc2)CC1 [Example 447] | 48 |
| OC1(c2ccccc2)CCN(CCCOc2ccc(Oc3nc4ccccc4o3)cc2)CC1 [Example 27] | 72 |
| NC(=O)C1CCN(Cc2ccc(Oc3nc4ccccc4s3)cc2)CC1 [Example 274] | 87 |
